target: HDAC2 (Homo sapiens, UniProt Q92769); construct: purchased Reaction Biology Corporation (assay run by the CRO); assay: HDAC2 inhibition, full IC50 measurement (Reaction Biology; fluorogenic p53 peptide RHKK(Ac)AMC); type: biochemical; conditions: Conc. 1.00E-05 M, t2
Sequence (Q92769 whole entry): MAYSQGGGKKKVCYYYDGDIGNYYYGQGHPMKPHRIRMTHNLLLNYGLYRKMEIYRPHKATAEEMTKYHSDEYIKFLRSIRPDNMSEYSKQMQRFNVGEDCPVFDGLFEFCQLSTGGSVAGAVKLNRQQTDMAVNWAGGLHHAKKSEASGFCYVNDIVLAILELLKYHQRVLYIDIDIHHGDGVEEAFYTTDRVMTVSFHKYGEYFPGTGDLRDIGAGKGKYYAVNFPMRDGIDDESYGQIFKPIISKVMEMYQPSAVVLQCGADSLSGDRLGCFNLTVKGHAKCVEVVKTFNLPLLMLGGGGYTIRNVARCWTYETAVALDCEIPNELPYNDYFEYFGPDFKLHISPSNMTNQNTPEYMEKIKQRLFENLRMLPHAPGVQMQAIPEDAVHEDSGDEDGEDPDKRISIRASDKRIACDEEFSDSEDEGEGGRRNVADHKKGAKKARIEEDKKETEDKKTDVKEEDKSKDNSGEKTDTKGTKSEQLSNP
Peptide text beside a SMILES is read from it.
Below, each entry is listed alongside its reported HDAC2 activity raw data (signal).
Write the number on its own, no unit after it.

| molecule | HDAC2 activity raw data (signal) |
| --- | --- |
| CSCC[C@H]1NC(=O)[C@@H](CO)NC(=O)[C@H](CC(N)=O)NC(=O)[C@H](CC(=O)O)NC(=O)[C@@H]([C@H](C)O)NC(=O)[C@H](Cc2c[nH]c3ccccc23)NC(=O)[C@H](CCCCCS)NC(=O)[C@H](CCCCN)NC(=O)[C@@H](CC(=O)O)NC1=O [des2.1.1, SHA-Trp-dThr-Asp-Asn-dSer-dMet-dAsp-Lys] (HELM PEPTIDE1{D.N.[dS].[dM].[dD].K.[O=C([C@H](CCCCCS)N[*:1])[*:2]].W.[dT]}$PEPTIDE1,PEPTIDE1,1:R1-9:R2$$$V2.0) | -1036 |

Switching to the query record.
Exercise: What value of HDAC2 activity raw data (signal) has been recorded for this entry: CC(C)C[C@H]1NC(=O)[C@H](Cc2c[nH]c3ccccc23)NC(=O)[C@H](CCCCCS)NC(=O)[C@@H](Cc2ccc(O)cc2)NC(=O)[C@@H](C(C)C)NC(=O)[C@H](Cc2c[nH]cn2)NC(=O)CNC(=O)CNC(=O)[C@@H](CO)NC1=O [des2.2.0, SHA-Trp-dLeu-dSer-Gly-Gly-His-dVal-dTyr] (HELM PEPTIDE1{G.G.H.[dV].[dY].[O=C([C@H](CCCCCS)N[*:1])[*:2]].W.[dL].[dS]}$PEPTIDE1,PEPTIDE1,1:R1-9:R2$$$V2.0)
Key: 755168

* * *

target: HDAC6 (Homo sapiens, UniProt Q9UBN7); construct: purchased Reaction Biology Corporation (assay run by the CRO); assay: HDAC6 inhibition, full IC50 measurement (Reaction Biology; fluorogenic p53 peptide RHKK(Ac)AMC); format: biochemical; conditions: Conc. 1.37E-08 M, t1
Sequence (Q9UBN7 whole entry): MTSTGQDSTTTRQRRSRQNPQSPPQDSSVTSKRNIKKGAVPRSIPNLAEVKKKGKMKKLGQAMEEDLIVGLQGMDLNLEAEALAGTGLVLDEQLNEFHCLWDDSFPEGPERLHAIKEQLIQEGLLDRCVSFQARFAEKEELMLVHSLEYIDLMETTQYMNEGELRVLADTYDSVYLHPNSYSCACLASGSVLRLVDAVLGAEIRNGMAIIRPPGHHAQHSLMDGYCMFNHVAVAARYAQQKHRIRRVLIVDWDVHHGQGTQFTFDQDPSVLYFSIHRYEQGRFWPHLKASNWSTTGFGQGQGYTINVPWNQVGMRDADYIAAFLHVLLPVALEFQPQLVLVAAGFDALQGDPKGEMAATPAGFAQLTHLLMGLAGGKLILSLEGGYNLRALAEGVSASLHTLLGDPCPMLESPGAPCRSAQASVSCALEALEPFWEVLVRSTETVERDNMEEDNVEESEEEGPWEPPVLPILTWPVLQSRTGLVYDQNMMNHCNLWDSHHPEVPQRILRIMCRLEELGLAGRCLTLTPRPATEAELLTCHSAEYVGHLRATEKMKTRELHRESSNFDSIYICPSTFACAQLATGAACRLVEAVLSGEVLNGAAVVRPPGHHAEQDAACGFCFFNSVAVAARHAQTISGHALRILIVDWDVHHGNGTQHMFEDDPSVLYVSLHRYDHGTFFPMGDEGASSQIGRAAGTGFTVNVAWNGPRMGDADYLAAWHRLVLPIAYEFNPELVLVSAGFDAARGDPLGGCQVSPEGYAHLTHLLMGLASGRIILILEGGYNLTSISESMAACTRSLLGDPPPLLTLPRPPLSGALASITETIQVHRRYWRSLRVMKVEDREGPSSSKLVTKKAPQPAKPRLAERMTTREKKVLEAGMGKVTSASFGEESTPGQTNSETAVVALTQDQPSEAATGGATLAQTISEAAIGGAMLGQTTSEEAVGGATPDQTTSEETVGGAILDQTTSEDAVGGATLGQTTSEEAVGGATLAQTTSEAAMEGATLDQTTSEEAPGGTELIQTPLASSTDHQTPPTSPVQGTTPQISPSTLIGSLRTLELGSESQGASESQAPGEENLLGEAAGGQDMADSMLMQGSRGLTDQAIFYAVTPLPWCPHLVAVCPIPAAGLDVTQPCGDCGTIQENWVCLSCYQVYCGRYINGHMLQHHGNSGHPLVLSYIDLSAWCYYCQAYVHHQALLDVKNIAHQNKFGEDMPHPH
Peptide text beside a SMILES is read from it.
Below, each entry is listed alongside its reported HDAC6 activity raw data (signal).
Write the number on its own, no unit after it.

Exercise: What value of HDAC6 activity raw data (signal) has been recorded for this entry: CCCC[C@H]1NC(=O)[C@H](Cc2ccccc2)NC(=O)[C@H](CCCCCS)NC(=O)[C@@H](CCCNC(=N)N)NC(=O)[C@H](CC(=O)O)NC(=O)[C@@H](CO)NC(=O)[C@@H](C)NC(=O)[C@H](CCCCN)NC1=O [des4.3.1, SHA-Phe-dNle-Lys-dAla-dSer-Asp-dArg] (HELM PEPTIDE1{D.[dR].[O=C([C@H](CCCCCS)N[*:1])[*:2]].F.[CCCC[C@@H](N[*:1])C(=O)[*:2]].K.[dA].[dS]}$PEPTIDE1,PEPTIDE1,1:R1-8:R2$$$V2.0)
Key: 307015

Exercise: What value of HDAC6 activity raw data (signal) has been recorded for this entry: NCCCC[C@@H]1NC(=O)[C@@H]2C[C@@H](O)CN2C(=O)[C@H](CC(N)=O)NC(=O)[C@H](CCCCCS)NC(=O)CNC(=O)[C@H](Cc2c[nH]c3ccccc23)NC(=O)[C@@H](CCCCN)NC(=O)[C@H](CCC(N)=O)NC1=O [des1.1.2, SHA-Asn-Hpr-Lys-Gln-dLys-Trp-Gly] (HELM PEPTIDE1{G.[O=C([C@H](CCCCCS)N[*:1])[*:2]].N.[Hyp].K.Q.[dK].W}$PEPTIDE1,PEPTIDE1,1:R1-8:R2$$$V2.0)
Key: 391207

Exercise: What value of HDAC6 activity raw data (signal) has been recorded for this entry: NCCCC[C@H]1NC(=O)[C@H](CCC(N)=O)NC(=O)[C@H](CCC(=O)O)NC(=O)[C@@H]2CCCN2C(=O)[C@H](CC(N)=O)NC(=O)[C@H](CCCCCS)NC(=O)CNC(=O)[C@H](Cc2c[nH]c3ccccc23)NC1=O [des1.1.1, SHA-Asn-Pro-Glu-Gln-dLys-Trp-Gly] (HELM PEPTIDE1{E.Q.[dK].W.G.[O=C([C@H](CCCCCS)N[*:1])[*:2]].N.P}$PEPTIDE1,PEPTIDE1,1:R1-8:R2$$$V2.0)
Key: 384422

Exercise: What value of HDAC6 activity raw data (signal) has been recorded for this entry: CC(C)C[C@H]1NC(=O)[C@H](Cc2c[nH]c3ccccc23)NC(=O)[C@H](CCCCCS)NC(=O)[C@@H](Cc2ccc(O)cc2)NC(=O)[C@@H](C(C)C)NC(=O)[C@H](Cc2c[nH]cn2)NC(=O)CNC(=O)CNC(=O)[C@@H](CO)NC1=O [des2.2.0, SHA-Trp-dLeu-dSer-Gly-Gly-His-dVal-dTyr] (HELM PEPTIDE1{G.G.H.[dV].[dY].[O=C([C@H](CCCCCS)N[*:1])[*:2]].W.[dL].[dS]}$PEPTIDE1,PEPTIDE1,1:R1-9:R2$$$V2.0)
Key: 141422

Exercise: What value of HDAC6 activity raw data (signal) has been recorded for this entry: N=C(N)NCCC[C@H]1NC(=O)[C@@H]2CCCN2C(=O)[C@H](CO)NC(=O)[C@@H](Cc2c[nH]cn2)NC(=O)[C@H](CCCCCS)NC(=O)[C@H](CCCCN)NC(=O)[C@H](Cc2ccc(O)cc2)NC(=O)[C@H]2CCCN2C(=O)[C@@H](CCC(N)=O)NC1=O [des3.1.0, SHA-dHis-Ser-Pro-dArg-dGln-dPro-Tyr-Lys] (HELM PEPTIDE1{K.[O=C([C@H](CCCCCS)N[*:1])[*:2]].[dH].S.P.[dR].[dQ].[dP].Y}$PEPTIDE1,PEPTIDE1,1:R1-9:R2$$$V2.0)
Key: 160112

Exercise: What value of HDAC6 activity raw data (signal) has been recorded for this entry: CCCC[C@H]1NC(=O)[C@H](CC(=O)O)NC(=O)[C@@H](CO)NC(=O)[C@@H](C)NC(=O)[C@H](CCCCN)NC(=O)[C@@H](CCCCN)NC(=O)[C@H](Cc2ccccc2)NC(=O)[C@H](CCCCCS)NC1=O [des4.3.1.2, SHA-Phe-dLys-Lys-dAla-dSer-Asp-dNle] (HELM PEPTIDE1{D.[CCCC[C@@H](N[*:1])C(=O)[*:2]].[O=C([C@H](CCCCCS)N[*:1])[*:2]].F.[dK].K.[dA].[dS]}$PEPTIDE1,PEPTIDE1,1:R1-8:R2$$$V2.0)
Key: 1690122

* * *

molecular target: HDAC2 (Homo sapiens); construct: purchased Reaction Biology Corporation (assay run by the CRO); experiment: HDAC2 inhibition, full IC50 measurement (Reaction Biology; fluorogenic p53 peptide RHKK(Ac)AMC); format: biochemical; settings: Conc. 1.23E-07 M, t1
Peptide text beside a SMILES is read from it.
Below, each entry is listed alongside its reported HDAC2 activity raw data (signal).
Write the number on its own, no unit after it.

Solved entries (count: 2):
| compound | HDAC2 activity raw data (signal) |
| --- | --- |
| CSCC[C@H]1NC(=O)[C@@H](CO)NC(=O)[C@H](CC(N)=O)NC(=O)[C@H](CC(=O)O)NC(=O)[C@@H]([C@H](C)O)NC(=O)[C@H](Cc2c[nH]c3ccccc23)NC(=O)[C@H](CCCCCS)NC(=O)[C@H](CCCCN)NC(=O)[C@@H](CC(=O)O)NC1=O [des2.1.1, SHA-Trp-dThr-Asp-Asn-dSer-dMet-dAsp-Lys] (HELM PEPTIDE1{D.N.[dS].[dM].[dD].K.[O=C([C@H](CCCCCS)N[*:1])[*:2]].W.[dT]}$PEPTIDE1,PEPTIDE1,1:R1-9:R2$$$V2.0) | 186095 |
| C[C@H](O)[C@H]1NC(=O)[C@H](Cc2c[nH]c3ccccc23)NC(=O)[C@H](CCCCCS)NC(=O)[C@H](CCCCN)NC(=O)[C@@H](CC(=O)O)NC(=O)[C@@H](CCCCN)NC(=O)[C@@H](CO)NC(=O)[C@H](CC(N)=O)NC(=O)[C@H](CC(=O)O)NC1=O [des2.1.0, SHA-Trp-dThr-Asp-Asn-dSer-dLys-dAsp-Lys] (HELM PEPTIDE1{D.N.[dS].[dK].[dD].K.[O=C([C@H](CCCCCS)N[*:1])[*:2]].W.[dT]}$PEPTIDE1,PEPTIDE1,1:R1-9:R2$$$V2.0) | 287500 |

Exercise: What value of HDAC2 activity raw data (signal) has been recorded for this entry: NCCCC[C@@H]1NC(=O)[C@@H]2CCCN2C(=O)[C@H](CC(N)=O)NC(=O)[C@H](CCCCCS)NC(=O)CNC(=O)[C@H](Cc2c[nH]c3ccccc23)NC(=O)[C@@H](CCCCN)NC(=O)[C@H](CCC(N)=O)NC1=O [des1.1.0, SHA-Asn-Pro-Lys-Gln-dLys-Trp-Gly] (HELM PEPTIDE1{G.[O=C([C@H](CCCCCS)N[*:1])[*:2]].N.P.K.Q.[dK].W}$PEPTIDE1,PEPTIDE1,1:R1-8:R2$$$V2.0)
Key: 761586
